# target_entity: Prostaglandin E synthase (Homo sapiens, UniProt O14684)
# experimental_protocol: Inhibition of human mPGES1 expressed in HEK293 microsomes assessed as reduction in PGE2 production using PGH2 as substrate after 2.5 mins by LC-MS analysis
pIC50: −log10 of the molar value.
test_readout: pIC50

{"record_smiles": "O=C(O)c1ccc(F)cc1CC[C@@H]1CCC[C@@H]1NC(=O)C1CCN(c2ccc(C(F)(F)F)cc2)CC1", "readout_value": 9.00}
{"record_smiles": "O=C(O)c1ccc(Cl)cc1OC[C@@H]1CCC[C@@H]1NC(=O)C1CCN(c2ccc(C(F)(F)F)cc2)CC1", "readout_value": 8.70}

P: Cc1cccc2ccc(N3CCC(C(=O)N[C@H]4CCC[C@H]4CCc4ccccc4C(=O)O)CC3)nc12
Q: CC(C)(C)C(=O)N[C@H]1CCC[C@H]1CNc1cc(Cl)ccc1C(=O)O
Lab note: check whether P or Q shows the higher recorded pIC50. Bench note: the answer is the label of the chosen record.
P

###

# experimental_protocol: Cmax in dog at 5 mg/kg, po
# Type: ADME, organism-based, Canis lupus familiaris
# Parameters: dose 5 mg/kg, route oral
# experimental_conditions: in vivo
test_readout: Cmax (µM)
Give a bare numeral; the unit µM is implied.

Sample `Cc1cccc2ccc(N3CCC(C(=O)N[C@H]4CCC[C@H]4CCc4ccccc4C(=O)O)CC3)nc12` — what was its Cmax?
4

###

# target_entity: Prostaglandin E synthase (Homo sapiens)
# Sequence (whole entry): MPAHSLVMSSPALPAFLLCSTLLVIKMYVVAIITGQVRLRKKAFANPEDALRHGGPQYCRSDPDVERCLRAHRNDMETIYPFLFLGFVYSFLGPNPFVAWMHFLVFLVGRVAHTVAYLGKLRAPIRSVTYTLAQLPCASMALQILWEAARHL
# experimental_protocol: Inhibition of mPGES1 in human whole blood assessed as reduction in LPS-induced PGE2 production preincubated for 30 mins followed by LPS addition measured after 20 to 24 hrs by LC-MS analysis
test_readout: IC80 (nM)

Below, each entry is followed by its recorded IC80 result.
{"record_smiles": "O=C(O)c1ccccc1CC[C@@H]1CCC[C@@H]1NC(=O)C1CCN(c2ccc(OC(F)(F)F)cc2)CC1", "unit_string": "nM", "IC80": 43}
{"record_smiles": "O=C(O)c1ccccc1CC[C@@H]1CCC[C@@H]1NC(=O)C1CCN(c2ccc(C(F)(F)F)cc2)CC1", "unit_string": "nM", "IC80": 40}

1: Cc1ccc(C(=O)O)c(CC[C@@H]2CCC[C@@H]2NC(=O)C2CCN(c3ccc(C(F)(F)F)cc3)CC2)c1
2: O=C(O)c1ccc(Cl)cc1OC[C@@H]1CCC[C@@H]1NC(=O)C1CCN(c2ccc(C(F)(F)F)cc2)CC1
// task: argmin of IC80 over [ 1 , 2 ] Bench note: the answer is the label of the chosen record.
1
(1: 10 nM, 2: 25 nM)

###

# experimental_protocol: Clearance in rat at 1 mg/kg, iv
# Assay type: ADME, organism-based
# experimental_conditions: in vivo
test_readout: clearance (mL/min/kg)

Below, each entry is followed by its recorded clearance result.
{"record_smiles": "O=C(O)c1ccc(Cl)cc1NC[C@@H]1CCC[C@@H]1NC(=O)C1CCN(c2ccc(C(F)(F)F)cc2)CC1", "unit_string": "mL/min/kg", "readout_value": 40}
{"record_smiles": "O=C(O)c1ccc(Cl)cc1CC[C@@H]1CCC[C@@H]1NC(=O)C1CCN(c2ccc(C(F)(F)F)cc2)CC1", "unit_string": "mL/min/kg", "readout_value": 16}
{"record_smiles": "O=C(O)c1ccccc1CC[C@@H]1CCC[C@@H]1NC(=O)C1CCN(c2ccc(OC(F)(F)F)cc2)CC1", "unit_string": "mL/min/kg", "readout_value": 17}
{"record_smiles": "Cc1ccc(C(=O)O)c(CC[C@@H]2CCC[C@@H]2NC(=O)C2CCN(c3ccc(C(F)(F)F)cc3)CC2)c1", "unit_string": "mL/min/kg", "readout_value": 9}

P: O=C(O)c1ccc(F)cc1CC[C@@H]1CCC[C@@H]1NC(=O)C1CCN(c2ccc(C(F)(F)F)cc2)CC1
Q: Cc1cccc2ccc(N3CCC(C(=O)N[C@H]4CCC[C@H]4CCc4ccccc4C(=O)O)CC3)nc12
R: O=C(O)c1ccccc1CC[C@@H]1CCC[C@@H]1NC(=O)C1CCN(c2ccc(C(F)(F)F)cn2)CC1
Please order the records by their reported clearance, lowest number first. Give the labels in the order requested.
R, P, Q

###

# target_entity: UniProtKB O14684
# experimental_protocol: Inhibition of mPGES1 in human whole blood assessed as reduction in LPS-induced PGE2 production preincubated for 30 mins followed by LPS addition measured after 20 to 24 hrs by LC-MS analysis
test_readout: IC50 (nM)

Below, each entry is followed by its recorded IC50 result.
{"record_smiles": "O=C(O)c1ccc(Cl)cc1NC[C@@H]1CCC[C@@H]1NC(=O)C1CCN(c2ccc(C(F)(F)F)cc2)CC1", "unit_string": "nM", "IC50": 3}
{"record_smiles": "O=C(O)c1ccc(F)cc1CC[C@@H]1CCC[C@@H]1NC(=O)C1CCN(c2ccc(C(F)(F)F)cc2)CC1", "unit_string": "nM", "IC50": 6}

P: O=C(O)c1ccccc1CC[C@@H]1CCC[C@@H]1NC(=O)C1CCN(c2ccc(C(F)(F)F)cc2)CC1
Q: O=C(O)c1cccnc1CC[C@@H]1CCC[C@@H]1NC(=O)C1CCN(c2ccc(C(F)(F)F)cc2)CC1
R: Cc1ccc(C(=O)O)c(CC[C@@H]2CCC[C@@H]2NC(=O)C2CCN(c3ccc(C(F)(F)F)cc3)CC2)c1
S: CC(C)(C)C(=O)N[C@H]1CCC[C@H]1CNc1cc(Cl)ccc1C(=O)O
Highest IC50 first, then in falling order down to the smallest. Give the labels in the order requested.
S, Q, P, R
(S: 8910 nM, Q: 21 nM, P: 5 nM, R: 3 nM)
